Where these numbers come from: patent US20260008793A1

Size (nm) for assorted compounds
# Assay Overview: LNP size, PDI and zeta potential by Dynamic Light Scattering (Method A)
# Format: physicochemical
# Test Parameters: LNP formulated by Method A, Luciferase-mRNA loaded, DLS
Record the value in nm, omitting the unit from your answer.

Examples with answers:
CC/C=C\C/C=C\C/C=C\C/C=C\C/C=C\CCCCN(CCCCO)CCCCCC(OCCCCCCCC)O[Si](C)(C)OCC(CCCCCC)CCCCCCCC (stereo not shown) [Example 202] | 154.8
CCCCCCCCC(CCCCCC)C(=O)OCCCCCCN(CCCCO)CCCCCCOC(CCCCCCC)O[Si](C)(C)CCCCCCCC (stereo not shown) [Example 129] | 132.9
CC/C=C\C/C=C\C/C=C\C/C=C\C/C=C\CCCCN(CCCCO)CCCCCCOC(CCCCCCC)O[Si](C)(C)OCCCCCCCC (stereo not shown) [Example 197] | 170
CCCCCCCCOC(CCCCCCC)O[Si](C)(C)OCCCCCCN(CCCCO)CCCCCCOC(=O)C(CCCCCC)CCCCCCCC (stereo not shown) [Example 139] | 137.4
CC/C=C\C/C=C\C/C=C\C/C=C\C/C=C\CCCCN(CCCCO)CCCCCCOC(CCCCCCC)O[Si](C)(C)CCCCCCCC (stereo not shown) [Example 195] | 155.2
CCCCCCCCOC(CCCCCN(CCCCO)CCC[C@@H](C)C1CCC2C3CCC4C[C@H](OC)CC[C@]4(C)C3CC[C@@]21C)O[Si](C)(C)O[Si](C)(C)CCCCCCCC (stereo partly shown) [Example 218] | 165.6

Report Size (nm), nothing else, for this compound: CCCCCCCCOC(CCCCCN(CCCCO)CCCCCCOC(=O)C(CCCCCCCC)SCCCCC)O[Si](C)(C)OCCCCCCCC (stereo not shown) [Example 179] 189.1

Report Size (nm), nothing else, for this compound: CCCCCCCCCCSC(CCCC)C(=O)OCCCCCCN(CCCCO)CCCCCCOC(CCCCCCC)O[Si](C)(C)OCCCCCCCC (stereo not shown) [Example 169] 159.7

Report Size (nm), nothing else, for this compound: CCCCCCCCOC(CCCCCCC)O[Si](C)(C)OCCCCCCN(CCCCO)CCCCCCOC(=O)C(CCCCCCCC)SCCCCC (stereo not shown) [Example 188] 160.0

Report Size (nm), nothing else, for this compound: CCCCCCCCCCOC(CCCCC)O[Si](C)(C)OCCCCCCN(CCCCO)CCCCCCOC(=O)C(CCCCCC)CCCCCCCC (stereo not shown) [Example 145] 143.3

Report Size (nm), nothing else, for this compound: CCCCCCCCOC(CCCCCN(CCCCCC(OCCCCCCCC)O[Si](C)(C)CCCCCCCC)CCC1CCCN1C)O[Si](C)(C)CCCCCCCC (stereo not shown) [Example 116] 189.8

Report Size (nm), nothing else, for this compound: CCCCCCCCOC(CCCCCN(CCCCO)CCCCCCOC(=O)C(CCCCCCCC)SCCCCC)O[Si](C)(C)O[Si](C)(C)CCCCCCCC (stereo not shown) [Example 181] 188.6

Report Size (nm), nothing else, for this compound: CC/C=C\C/C=C\C/C=C\C/C=C\C/C=C\CCCCN(CCCCO)CCCCCCOC(CCCCCCC)O[Si](C)(C)O[Si](C)(C)OCCCCCCCC (stereo not shown) [Example 201] 176.2

Report Size (nm), nothing else, for this compound: CCCCCCCCCCSC(CCCC)C(=O)OCCCCCCN(CCCCO)CCCCCC(OCCCCCCCC)O[Si](C)(C)OCC(CCCCCC)CCCCCCCC (stereo not shown) [Example 174] 222.6

Report Size (nm), nothing else, for this compound: CCCCCCCCC(CCCCCC)C(=O)OCCCCCCN(CCCCO)CCCCCCOC(CCCCCCC)O[Si](C)(C)O[Si](C)(C)CCCCCCCC (stereo not shown) [Example 133] 135.7

Report Size (nm), nothing else, for this compound: CCCCCCCCOC(CCCCCCC)O[Si](C)(C)CCCCCCN(CCCCO)CCCCCCOC(=O)C(CCCCCCCC)SCCCCC (stereo not shown) [Example 187] 334.9

Report Size (nm), nothing else, for this compound: CC/C=C\C/C=C\C/C=C\C/C=C\C/C=C\CCCCN(CCCCO)CCCCCCOC(CCCCCCC)O[Si](C)(C)OCC(CCCCCC)CCCCCCCC (stereo not shown) [Example 203] 139.2

Report Size (nm), nothing else, for this compound: CCCCCCCCC(CCCCCC)C(=O)OCCCCCCN(CCCCO)CCCCCCOC(=O)C(CCCCCC)CCCCCCCC (stereo not shown) [ALC-0315, reference compound] 172.6

Report Size (nm), nothing else, for this compound: CCCCCCCCOC(CCCCCN(CCCCO)CCCCCCOC(=O)C(CCCCCCCC)SCCCCC)O[Si](C)(C)O[Si](C)(C)OCCCCCCCC (stereo not shown) [Example 183] 143.9

Report Size (nm), nothing else, for this compound: CCCCCCCCOC(CCCCCN(CCCCO)CCCCCCOC(=O)C(CCCCCC)CCCCCCCC)O[Si](C)(C)OCC(CCCCCC)CCCCCCCC (stereo not shown) [Example 136] 305.2

Report Size (nm), nothing else, for this compound: CCCCCCCCOC(CCCCCN(CCCCO)CCCCCCOC(=O)C(CCCCCC)CCCCCCCC)O[Si](C)(C)OCCCCCCCC (stereo not shown) [Example 130] 587.6

Report Size (nm), nothing else, for this compound: CC/C=C\C/C=C\C/C=C\C/C=C\C/C=C\CCCCN(CCCCO)CCCCCCOC(CCCCCCC)O[Si](C)(C)O[Si](C)(C)CCCCCCCC (stereo not shown) [Example 199] 164.3

Report Size (nm), nothing else, for this compound: CC/C=C\C/C=C\C/C=C\C/C=C\C/C=C\CCCCN(CCCCO)CCCCCC(OCCCCCCCC)O[Si](C)(C)O[Si](C)(C)OCCCCCCCC (stereo not shown) [Example 200] 155.1

Report Size (nm), nothing else, for this compound: CCCCCCCCOC(CCCCCCC)O[Si](C)(C)CCCCCCN(CCCCO)CCCCCCOC(=O)C(CCCCCC)CCCCCCCC (stereo not shown) [Example 138] 211.7

Report Size (nm), nothing else, for this compound: CCCCCCCCCOC(CCCCCCC)O[Si](C)(C)OCCCCCCN(CCCCO)CCCCCCOC(=O)C(CCCCCC)CCCCCCCC (stereo not shown) [Example 141] 129.5
